The reported measurements were obtained from the supplement of paper PMC4894684.

Exercise: for every item that follows, state its recorded parasite growth.
- Tested on: Toxoplasma gondii RH (in HFF)
- assay.procedure: parasite growth relative to the screen mean (all compounds = 100%); higher = less inhibition of parasite growth
- experimental.context: 5 µM; 72 h; oxygen 21 %
Where a name gives a salt, the structure may show the parent alone.
Answers are plain numbers, in %.

The cases that follow already have their parasite growth on record.
compound=COC(=O)c1c(C)[nH]c(C)c1C(=O)c1ccccc1Cc1ccccc1 endpoint_value=116
compound="Cc1cccc(C#Cc2ccccc2)n1 [MPEP hydrochloride]" endpoint_value=101
compound="CS(=O)(=O)Nc1ccc([N+](=O)[O-])cc1Oc1ccccc1 [Nimesulide]" endpoint_value=98.5
compound="O=C(NCCN1CCCCC1)c1ccc(I)cc1 [N-[2-(Piperidinylamino)ethyl]-4-iodobenzamide]" endpoint_value=118
compound="O=C1OC(OC(=O)c2cccnc2Nc2cccc(C(F)(F)F)c2)c2ccccc21 (stereo not drawn) [Talniflumate]" endpoint_value=113
compound="C[C@@H](CN1CC(=O)NC(=O)C1)N1CC(=O)NC(=O)C1 [Dexrazoxane hydrochloride]" endpoint_value=102

Below is a list of compounds. For each, state its recorded parasite growth.
1. O=C1NN(C(=O)Nc2ccc(Br)cc2)[C@@H](c2ccccc2)[C@@H]1c1ccccc1
2. CN1CCN(C2=Nc3cc(Cl)ccc3Nc3ccccc32)CC1
3. Nc1nc(F)nc2c1ncn2[C@@H]1O[C@H](CO)[C@@H](O)[C@@H]1O
4. Cn1cc(/C=C2\C(=O)Nc3cccnc32)c2ccccc21
5. C[C@@]1(O)[C@H](O)[C@@H](CO)O[C@H]1n1cnc2c(NC3CCCC3)nc(Cl)nc21

1. 125
2. 178
3. 102
4. 131
5. 85.3

---

- Test system: Toxoplasma gondii RH (in HFF)
- assay.procedure: parasite growth relative to the screen mean (all compounds = 100%); higher = less inhibition of parasite growth
- experimental.context: 5 µM; 72 h; oxygen 21 %
Lab note: compare parasite growth against 90%. Equal or greater, write met. Smaller, write not met.

molecule=CN(CCOc1ccc(C[C@H](Nc2ccccc2C(=O)c2ccccc2)C(=O)O)cc1)c1ccccn1 class_label="not met"
molecule=O=C(O)CCc1ccc(NCc2cccc(Oc3ccccc3)c2)cc1 class_label=met
molecule=O=C(Cc1ccccc1)Nc1nc2ccc(Cl)cc2c2nc(-c3ccco3)nn12 class_label=met

State whether the measured parasite growth reaches 90%, counting equality as reaching it, for NS(=O)(=O)C#Cc1ccccc1
met

hey, is parasite growth for this one >= 90%? N[C@@H](CS(=O)O)C(=O)O
not met

Hi team, for CC(C)[C@H](CO)Nc1nc(Nc2ccc(C(=O)O)c(Cl)c2)c2ncn(C(C)C)c2n1 , is the recorded parasite growth at or above 90%?
met

Textbook exercise: given the entry CC[C@H](C)C(=O)O[C@H]1C[C@@H](C)C=C2C=C[C@H](C)[C@H](CC[C@@H]3C[C@@H](O)CC(=O)O3)[C@H]21 , state whether its parasite growth is greater than or equal to 90%.
met

# check: parasite growth of NS(=O)(=O)Cc1noc2ccccc12 [Zonisamide] is greater than or equal to 90%
met

---

- Test system: Toxoplasma gondii RH (in HFF)
- assay.procedure: parasite growth relative to the screen mean (all compounds = 100%); higher = less inhibition of parasite growth
- experimental.context: 5 µM; 72 h; oxygen 21 %
Structures can show the parent of a compound that is named as a salt.
reported.metric: parasite growth (%)
Numbers only, in %.

Would you please look over these solved cases?
molecule="COc1ccc2[nH]c([S+]([O-])Cc3ncc(C)c(OC)c3C)nc2c1 (centres undefined)" endpoint_value=178
molecule="CCOC(=O)c1ccc(OC(=O)CCCCCNC(=N)N)cc1 [Gabexate mesylate]" endpoint_value=144
molecule=CC[C@H](NC(=O)c1c(C)c(-c2ccccc2)nc2ccccc12)c1ccccc1 endpoint_value=98.6
molecule=CCCn1c(=O)c(C)cn2nc(N)nc12 endpoint_value=145
molecule="NC(=O)OCC(COC(N)=O)c1ccccc1 [Felbamate]" endpoint_value=85.9
molecule="CC1Nc2ccc(Cl)cc2S(=O)(=O)N1 (centres undefined)" endpoint_value=105
molecule=CN1CCN(C2=Cc3ccccc3Oc3ccc(Cl)cc32)CC1 endpoint_value=31.7
molecule=N[C@@H]1CCN(O)C1=O endpoint_value=97.4
molecule="O=C(c1ccc(F)cc1)C1CCN(CCn2c(=O)[nH]c3ccccc3c2=O)CC1 [Ketanserin tartrate]" endpoint_value=183
molecule=CC1=C(/C=C/C(C)=C/C=C/C(C)=C/C(=O)O)C(C)(C)CCC1 endpoint_value=85

# query: parasite growth | item N[C@@H](CSS(=O)(=O)O)C(=O)O [S-Sulfo-L-cysteine sodium salt] | system: Toxoplasma gondii RH (in HFF)
101
